Catalogue of compounds with associated inhibition at 10 µM
measuredTarget: human Edg-1(S1P1) (Homo sapiens, UniProt P21453)
Construct: expressed in transfected cells; host or cells: HEK-293
Sequence (P21453 whole entry): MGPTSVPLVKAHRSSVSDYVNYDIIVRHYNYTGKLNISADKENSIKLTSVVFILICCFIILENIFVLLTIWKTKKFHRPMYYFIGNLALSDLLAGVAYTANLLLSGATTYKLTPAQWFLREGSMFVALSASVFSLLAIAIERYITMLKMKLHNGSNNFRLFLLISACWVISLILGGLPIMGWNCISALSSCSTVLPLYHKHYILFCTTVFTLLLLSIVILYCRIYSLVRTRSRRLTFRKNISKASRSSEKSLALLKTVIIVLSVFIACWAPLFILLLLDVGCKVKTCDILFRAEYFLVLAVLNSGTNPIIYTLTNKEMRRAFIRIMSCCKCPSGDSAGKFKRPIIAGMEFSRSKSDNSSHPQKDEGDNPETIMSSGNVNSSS
experiment: Cell system binding test: inhibition of [3H]-S1P binding to Edg-1(S1P1) gene transferred HEK-293 cells
conditionSummary: test compound 10^-5 M, [3H]-S1P 10 nM, 1 hour, read-out: Edg-1(S1P1) binding inhibition rate (cell system binding test)
Could you kindly put the unit after your number?

CCCCn1c(OC)nnc1[C@@H](C)NS(=O)(=O)c1ccc(Cl)cc1 | 47.5%
CCn1c(OC(C)C)nnc1[C@@H](C)NS(=O)(=O)c1cccc(Cl)c1 | 93.3%
CCn1c(OC(C)C)nnc1[C@@H](C)NS(=O)(=O)c1ccc(Cl)c(Cl)c1 | 89.4%
CCn1c(OCC(F)(F)F)nnc1[C@@H](C)NS(=O)(=O)c1cc(F)c(F)c(F)c1 | 101%

CCn1c(OC(C)C)nnc1[C@@H](C)NS(=O)(=O)c1ccc(F)c(F)c1 has a reported inhibition at 10 µM of 97.9%

CCn1c(OCC(F)(F)F)nnc1[C@@H](C)NS(=O)(=O)c1ccc(C(F)(F)F)cc1 has a reported inhibition at 10 µM of 103%

CCn1c(OCC(F)(F)F)nnc1[C@@H](C)NS(=O)(=O)c1ccc(C)c(C)c1 has a reported inhibition at 10 µM of 105%

CCn1c(OCC(F)(F)F)nnc1[C@@H](C)NS(=O)(=O)c1cc(F)c(Br)cc1F has a reported inhibition at 10 µM of 93.7%

###

measuredTarget: human Edg-1(S1P1) (Homo sapiens, UniProt P21453)
Construct: expressed in transfected cells; host or cells: HEK-293
experiment: Membrane system binding test: inhibition of [33P]-S1P binding to the membrane fraction of Edg-1(S1P1) gene transferred HEK-293 cells
conditionSummary: test compound 10^-5 M; [33P]-S1P 0.1 nM; 1 hour at 30° C.; HEK-293 membrane fraction; read-out: Edg-1(S1P1) binding inhibition rate (membrane system binding test)
measurementName: inhibition at 10 µM (%)
// note: answer is a bare numeric in %

CCn1c(OCC(F)(F)F)nnc1[C@@H](C)NS(=O)(=O)c1ccc2ccccc2c1 [Compound 495] | 89.9

CCn1c(OCC(F)(F)F)nnc1[C@@H](C)NS(=O)(=O)c1cc(F)c(F)c(F)c1 [Compound 490] has a reported inhibition at 10 µM of 88.9

CCn1c(OCC(F)(F)F)nnc1[C@@H](C)NS(=O)(=O)c1ccc(C)c(F)c1 [Compound 494] has a reported inhibition at 10 µM of 87.1

###

Catalogue of molecules with associated inhibition at 10 µM
measuredTarget: human Edg-1(S1P1) (Homo sapiens)
Construct: expressed in transfected cells; host or cells: HEK-293
experiment: Membrane system binding test: inhibition of [33P]-S1P binding to the membrane fraction of Edg-1(S1P1) gene transferred HEK-293 cells
conditionSummary: 10 μM compound; [33P]-S1P 0.1 nM; membrane fraction of Edg-1(S1P1) gene transferred HEK-293 cells; read-out: Membrane system binding test % inhibition (10 μM)
// note: answer is a bare numeric in %

CCCCCCCCSc1nnc([C@@H](C)NS(=O)(=O)c2ccc(Cl)cc2)n1CC | 100
C=CCSc1nnc([C@@H](C)N(C)S(=O)(=O)c2ccc(Cl)cc2)n1CC | 57.4

For the molecule C=CCSc1nnc(C(C)NS(=O)(=O)c2ccc(Cl)cc2)n1C (centres unmarked) , the measured inhibition at 10 µM on human Edg-1(S1P1) (Homo sapiens) was 47.4

For the molecule CCn1c(OC)nnc1[C@@H](C)NS(=O)(=O)c1ccc(Br)c(C(F)(F)F)c1 , the measured inhibition at 10 µM on human Edg-1(S1P1) (Homo sapiens) was 94.3

For the molecule CCn1c(SCc2ccccn2)nnc1[C@@H](C)NS(=O)(=O)c1ccc(Cl)cc1 , the measured inhibition at 10 µM on human Edg-1(S1P1) (Homo sapiens) was 99.7

For the molecule CCOc1nnc([C@@H](C)NS(=O)(=O)c2ccc(Br)c(C)c2)n1CC , the measured inhibition at 10 µM on human Edg-1(S1P1) (Homo sapiens) was 99.2

For the molecule CCOc1nnc([C@@H](C)NS(=O)(=O)c2ccc(I)cc2)n1CC , the measured inhibition at 10 µM on human Edg-1(S1P1) (Homo sapiens) was 86.4

For the molecule C=CCSc1nnc(C(Cc2ccccc2)NS(=O)(=O)c2ccc(Cl)cc2)n1C (centres unmarked) , the measured inhibition at 10 µM on human Edg-1(S1P1) (Homo sapiens) was 96.9

###

measuredTarget: human Edg-1(S1P1) (Homo sapiens)
Construct: expressed in transfected cells; host or cells: HEK-293
experiment: Cell system binding test: inhibition of [3H]-S1P binding to Edg-1(S1P1) gene transferred HEK-293 cells
conditionSummary: 10 μM compound, [3H]-S1P 10 nM, read-out: Cell system binding test % inhibition (10 μM)
measurementName: inhibition at 10 µM

Study these solved cases before continuing.
CCn1c([C@@H](C)NS(=O)(=O)c2ccc(Cl)cc2)nnc1S(C)(=O)=O [Compound 182] | 53.7%
CCn1c(OC)nnc1[C@@H](Cc1cccc(Cl)c1)NS(=O)(=O)c1ccc(Cl)cc1 [Compound 440] | 95.1%
CCn1c(OC)nnc1[C@@H](C)NS(=O)(=O)c1cccc(OC(F)(F)F)c1 [Compound 275] | 99.4%

Please look at the following molecule next.
CCn1c(SC(c2ccccc2)c2ccccc2)nnc1[C@@H](C)NS(=O)(=O)c1ccc(Cl)cc1 [Compound 40] has a reported inhibition at 10 µM of 87%

###

measuredTarget: human Edg-1(S1P1) (Homo sapiens)
Construct: expressed in transfected cells; host or cells: HEK-293
experiment: Cell system binding test: inhibition of [3H]-S1P binding to Edg-1(S1P1) gene transferred HEK-293 cells
conditionSummary: 10 μM compound, [3H]-S1P 10 nM, read-out: Cell system binding test % inhibition (10 μM)
Catalogue of compounds with associated inhibition at 10 µM
// note: answer is a bare numeric in %

Study these solved cases before continuing.
CCn1c(OC)nnc1[C@@H](C)NS(=O)(=O)c1ccc(OC)cc1 | 92.3
CCn1c(SC/C=C\COCc2ccccc2)nnc1[C@@H](C)NS(=O)(=O)c1ccc(Cl)cc1 | 95.3
CCn1c(SCCn2ccnc2)nnc1[C@@H](C)NS(=O)(=O)c1ccc(Cl)cc1 | 87.9
CCn1c(OC)nnc1[C@@H](C)NS(=O)(=O)Cc1cccc(Cl)c1 | 86.5
CCn1c(OC)nnc1[C@@H](C)NS(=O)(=O)c1cccc(C#N)c1 | 96.2
CCn1c(OC)nnc1[C@@H](C)NS(=O)(=O)Cc1cccc([N+](=O)[O-])c1 | 79.8
CCn1c(OC)nnc1[C@@H](C)NS(=O)(=O)Cc1ccccc1[N+](=O)[O-] | 90.9
CCn1c(SCc2cccc3ccccc23)nnc1[C@@H](C)NS(=O)(=O)c1ccc(Cl)cc1 | 93
CCOc1nnc([C@@H](C)NS(=O)(=O)c2ccc(C)c(F)c2)n1CC | 95.9
CCn1c(OC)nnc1[C@@H](C)NS(=O)(=O)c1ccc2oc(=O)ccc2c1 | 100

CCn1c(SCc2ccc(C#N)cc2)nnc1[C@@H](C)NS(=O)(=O)c1ccc(Cl)cc1 has a reported inhibition at 10 µM of 87.1

CCn1c(SCc2ccc(Cl)cc2)nnc1[C@@H](C)NS(=O)(=O)c1ccc(Cl)cc1 has a reported inhibition at 10 µM of 91.7

CCn1c(SCC2CCOC2)nnc1[C@@H](C)NS(=O)(=O)c1ccc(Cl)cc1 (stereo partly drawn) has a reported inhibition at 10 µM of 80.8

CCn1c(OC)nnc1[C@@H](C)NS(=O)(=O)c1ccc(C(C)C)cc1 has a reported inhibition at 10 µM of 92.7

C=CCSc1nnc(C(CCC)NS(=O)(=O)c2ccc(Cl)cc2)n1C (stereo not drawn) has a reported inhibition at 10 µM of 69

###

measuredTarget: human Edg-1(S1P1) (Homo sapiens)
Construct: expressed in transfected cells; host or cells: HEK-293
experiment: Membrane system binding test: inhibition of [33P]-S1P binding to the membrane fraction of Edg-1(S1P1) gene transferred HEK-293 cells
conditionSummary: 10 μM compound; [33P]-S1P 0.1 nM; membrane fraction of Edg-1(S1P1) gene transferred HEK-293 cells; read-out: Membrane system binding test % inhibition (10 μM)
Experimental: The membrane fraction was obtained by treating the cells with a solubilizing buffer (1 mM Tris/HCl, pH 7.2) for 10 minutes on ice, centrifuging the system (1000×g, 5 min) to remove insoluble fractions, and then centrifuging the system (40000×g, 30 min, 4° C.). […] To the filter, 25 μL Microscint 0 (produced by Perkin-Elmer) was added, and the assay system was measured for radioactivity by means of Top Count NXT (Packard). […]
measurementName: inhibition at 10 µM (%)
// note: answer is a bare numeric in %

Study these solved cases before continuing.
CCn1c(OC)nnc1[C@@H](C)NS(=O)(=O)c1ccc(C)cc1OC | 42.7
CCn1c(OC)nnc1[C@@H](C)NS(=O)(=O)c1ccc(C(F)(F)F)cc1 | 86.3
CCn1c(OCCC(C)C)nnc1[C@@H](C)NS(=O)(=O)c1ccc(Cl)cc1 | 78.3

CCn1c(OC)nnc1[C@@H](C)NS(=O)(=O)c1ccc(F)c(F)c1 has a reported inhibition at 10 µM of 80.1

CCn1c(SC)nnc1[C@@H](C)NS(=O)(=O)c1ccc(Cl)cc1 has a reported inhibition at 10 µM of 72.3

CCn1c(OC)nnc1[C@@H](C)NS(=O)(=O)c1cc(Br)c(Br)s1 has a reported inhibition at 10 µM of 88.3

CCn1c(OC)nnc1[C@@H](C)NS(=O)(=O)c1ccccc1C has a reported inhibition at 10 µM of 61.8

CCn1c(OCCCN2CCOCC2)nnc1[C@@H](C)NS(=O)(=O)c1ccc(Cl)cc1 has a reported inhibition at 10 µM of 76.9

CCn1c(OC)nnc1[C@@H](C)NS(=O)(=O)c1csc2ccccc12 has a reported inhibition at 10 µM of 85.1

CCn1c(OC)nnc1[C@@H](C)NS(=O)(=O)c1cc(F)c(Br)cc1F has a reported inhibition at 10 µM of 61.3

CCCCCCCCCCCCCCCCOc1nnc([C@@H](C)NS(=O)(=O)c2ccc(Cl)cc2)n1CC has a reported inhibition at 10 µM of 105

CCOc1nnc([C@@H](C)NS(=O)(=O)c2cc(F)c(Br)cc2F)n1CC has a reported inhibition at 10 µM of 62.7

C=CCSc1nnc([C@@H](Cc2ccccc2)NS(=O)(=O)c2ccc(Cl)cc2)n1C has a reported inhibition at 10 µM of 84.8

CCn1c(OCCO)nnc1[C@@H](C)NS(=O)(=O)c1ccc(Cl)cc1 has a reported inhibition at 10 µM of 41.3

CCn1c(SCc2cccc(Cl)c2)nnc1[C@@H](C)NS(=O)(=O)c1ccc(Cl)cc1 has a reported inhibition at 10 µM of 99.6

CCOc1nnc([C@@H](C)NS(=O)(=O)c2ccc(C)c(C)c2)n1CC has a reported inhibition at 10 µM of 86.1

CCn1c(OC)nnc1[C@@H](C)NS(=O)(=O)c1ccc(F)c(C#N)c1 has a reported inhibition at 10 µM of 68

CCn1c(SC2CCCCC2)nnc1[C@@H](C)NS(=O)(=O)c1ccc(Cl)cc1 has a reported inhibition at 10 µM of 85.6

CCCCOc1ccc(S(=O)(=O)N[C@@H](C)c2nnc(OC)n2CC)cc1 has a reported inhibition at 10 µM of 47.4

CCn1c(SCc2ccc(Cl)cc2)nnc1[C@@H](C)NS(=O)(=O)c1ccc(Cl)cc1 has a reported inhibition at 10 µM of 91.3

CCn1c(OC)nnc1[C@@H](C)NS(=O)(=O)c1cccs1 has a reported inhibition at 10 µM of 49.9

CCn1c(OC)nnc1[C@@H](C)NS(=O)(=O)c1cc2ccccc2s1 has a reported inhibition at 10 µM of 102

CCOc1nnc([C@@H](C)NS(=O)(=O)c2cccc(C(F)(F)F)c2)n1CC has a reported inhibition at 10 µM of 81

CCn1c(SCCCc2ccncc2)nnc1[C@@H](C)NS(=O)(=O)c1ccc(Cl)cc1 has a reported inhibition at 10 µM of 97.9

Hey, just so you know, these numbers are from patent US8022225B2.
